Data credit: patent US20250213575A1

- subject.of.test: AgrA (Staphylococcus aureus)
- Sequence (P0A0I7 whole entry): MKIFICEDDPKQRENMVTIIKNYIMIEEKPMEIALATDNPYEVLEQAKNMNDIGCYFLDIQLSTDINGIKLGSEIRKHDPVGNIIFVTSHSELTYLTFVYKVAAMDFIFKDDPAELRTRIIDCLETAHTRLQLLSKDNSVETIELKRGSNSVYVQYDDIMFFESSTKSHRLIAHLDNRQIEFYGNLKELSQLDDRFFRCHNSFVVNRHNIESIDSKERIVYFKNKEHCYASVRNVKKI
- assay.overview: cell-based
- Set-up: species or system S. aureus USA300 strain UAMS-1625
- test.settings: IC50 at 40 mg/mL HSA, LB medium supplemented with 40 mg/mL human serum albumin
readout: IC50

Recorded results for 3 molecules are shown here.
> print(dat)
                                   molecule     measurement
1  Cc1ccc(S(=O)(=O)c2nnn3c2[nH]c(=O)c2ccc(N4CCN5CCC[C@@H]5C4)cc23)c(C)c1  20.9 to 104 µM
2  Cc1ccc(S(=O)(=O)c2nnn3c2[nH]c(=O)c2ccc(N4CC[C@@H](N)C4)cc23)c(C)c1  22.8 to 114 µM
3  Cc1ccc(S(=O)(=O)c2nnn3c2[nH]c(=O)c2ccc(N4CCN(C(C)CO)CC4)cc23)c(C)c1 (stereo not shown)  20.1 to 101 µM

Shift focus to the following entry.
Ask: Fill in reported IC50 for this entry: Cc1ccc(S(=O)(=O)c2nnn3c2[nH]c(=O)c2ccc(N4CCC4)cc23)c(C)c1 [45 (WO 2020/109350), reference compound]
Reply: > 122 µM
